- Organism: Homo sapiens
- test.description: Selectivity ratio of IC50 for recombinant epitope-tagged JAK1 (861 to 1152) (unknown origin) to IC50 for recombinant epitope-tagged JAK2 (808 to 1132) (unknown origin)
property: Ratio IC50

Example molecules with recorded Ratio IC50:
NC(=O)c1cc(-c2ncnc3[nH]ccc23)cn1-c1cc(C(F)(F)F)ccc1Cl :: 4
Cc1ccc(Cl)cc1-c1cn(-c2ncnc3[nH]ccc23)cc1C(N)=O :: 5
CCc1ccc(Cl)cc1-n1cc(-c2ncnn3cccc23)cc1C(N)=O :: 7
Cc1ccc(Cl)cc1-c1cc(-c2ncnc3[nH]ccc23)[nH]c1C(N)=O :: 5

1 = CCc1ccc(Cl)cc1-c1cc(-c2ncnc3[nH]ccc23)[nH]c1C(N)=O
2 = Cc1ccc(Cl)cc1-n1cc(-c2ncnc3[nH]ccc23)cc1C(N)=O
3 = CCc1ccc(Cl)cc1-n1cc(-c2cc(NC)ncn2)cc1C(N)=O
Arrange items by their Ratio IC50 values in increasing order. Please list the labels in the order you were asked to rank them.
2, 1, 3

* * *

- test.description: Volume of distribution at steady state in Balb nu/nu mouse at 10 mg/kg, iv by LC/MS/MS analysis
- Type: ADME, organism-based
- Set-up: dose 10 mg/kg, route intravenous
- stated.conditions: in vivo, read-out: Vdss
property: Vd (L/kg)

Cc1ccc(Cl)cc1-n1cc(-c2ncnc3[nH]ccc23)cc1C(N)=O :: 0.7

P = CCc1ccc(Cl)cc1-n1cc(-c2cc(N)ncn2)cc1C(N)=O
Q = CCc1ccc(Cl)cc1-n1cc(-c2cc(NC)ncn2)cc1C(N)=O
R = CCc1ccc(Cl)cc1-n1cc(-c2ncnn3cccc23)cc1C(N)=O
Put the items in order so that reported Vd rises from first to last. Please list the labels in the order you were asked to rank them.
P, Q, R

* * *

- test.description: Half life in Balb nu/nu mouse at 10 mg/kg, po by LC/MS/MS analysis
- Type: ADME, organism-based
- Parameters: dose 10 mg/kg, route oral
- stated.conditions: in vivo
property: half-life (h)

CCc1ccc(Cl)cc1-n1cc(-c2cc(NC)ncn2)cc1C(N)=O :: 2.4
Cc1ccc(Cl)cc1-n1cc(-c2ncnc3[nH]ccc23)cc1C(N)=O :: 3
CCc1ccc(Cl)cc1-n1cc(-c2ncnn3cccc23)cc1C(N)=O :: 3.7
CCc1ccc(Cl)cc1-n1cc(-c2cc(N)ncn2)cc1C(N)=O :: 2.6

* * *

- test.description: Cmax in Balb nu/nu mouse at 10 mg/kg, po by LC/MS/MS analysis
- Format: ADME, organism-based
- Design: dose 10 mg/kg, route oral
- stated.conditions: in vivo
property: Cmax (nM)

Field: example entries. Status: answers known.
CCc1ccc(Cl)cc1-n1cc(-c2ncnn3cccc23)cc1C(N)=O :: 40
CCc1ccc(Cl)cc1-n1cc(-c2cc(N)ncn2)cc1C(N)=O :: 12500

1 = Cc1ccc(Cl)cc1-n1cc(-c2ncnc3[nH]ccc23)cc1C(N)=O
2 = CCc1ccc(Cl)cc1-n1cc(-c2cc(NC)ncn2)cc1C(N)=O
Lab notebook, comparison: 1 versus 2 , higher Cmax goes to which? Answer by quoting the chosen item's label.
2
(2: 1600 nM, 1: 690 nM)

* * *

- test.description: Clearance in Balb nu/nu mouse at 10 mg/kg, iv by LC/MS/MS analysis
- Assay type: ADME, organism-based
- Parameters: dose 10 mg/kg, route intravenous
- stated.conditions: in vivo
property: clearance (mL/min/kg)

As a guide, the following entries are already answered.
CCc1ccc(Cl)cc1-n1cc(-c2cc(NC)ncn2)cc1C(N)=O :: 12
CCc1ccc(Cl)cc1-n1cc(-c2ncnn3cccc23)cc1C(N)=O :: 51

1 = Cc1ccc(Cl)cc1-n1cc(-c2ncnc3[nH]ccc23)cc1C(N)=O
2 = CCc1ccc(Cl)cc1-n1cc(-c2cc(N)ncn2)cc1C(N)=O
Could you tell me which of 1 and 2 has the lower clearance reading? Respond using the label that marks the chosen record.
2
(2: 8.3 mL/min/kg, 1: 17 mL/min/kg)

* * *

- test.description: Solubility of the compound at pH 7
- Assay type: physicochemical
- stated.conditions: buffer
property: solubility (µM)

Example results:
Cc1ccc(Cl)cc1-c1cc(-c2ncnc3[nH]ccc23)[nH]c1C(N)=O :: 3
CCc1ccc(Cl)cc1-n1cc(-c2ncnn3cccc23)cc1C(N)=O :: 25
Cc1ccc(Cl)cc1-n1cc(-c2ncnc3[nH]ccc23)cc1C(N)=O :: 40

A = Cc1ccc(Cl)cc1-c1cn(-c2ncnc3[nH]ccc23)cc1C(N)=O
B = CCc1ccc(Cl)cc1-n1cc(-c2cc(N)ncn2)cc1C(N)=O
Compare reported solubility values for A and B . Which is lower? Response format: the label of the selected entry.
A

* * *

- test.description: Half life in Balb nu/nu mouse at 10 mg/kg, iv by LC/MS/MS analysis
- Type: ADME, organism-based
- Set-up: dose 10 mg/kg, route intravenous
- stated.conditions: in vivo
property: half-life (h)

Sample answers from the record:
CCc1ccc(Cl)cc1-n1cc(-c2ncnn3cccc23)cc1C(N)=O :: 5.5
CCc1ccc(Cl)cc1-n1cc(-c2cc(NC)ncn2)cc1C(N)=O :: 5.4

a = Cc1ccc(Cl)cc1-n1cc(-c2ncnc3[nH]ccc23)cc1C(N)=O
b = CCc1ccc(Cl)cc1-n1cc(-c2cc(N)ncn2)cc1C(N)=O
Between a and b , which one shows the smaller half-life number? Please identify the chosen entry by its label.
b

* * *

- target.desc: Tyrosine-protein kinase JAK2 (Homo sapiens, UniProt O60674)
- Sequence (O60674 whole entry): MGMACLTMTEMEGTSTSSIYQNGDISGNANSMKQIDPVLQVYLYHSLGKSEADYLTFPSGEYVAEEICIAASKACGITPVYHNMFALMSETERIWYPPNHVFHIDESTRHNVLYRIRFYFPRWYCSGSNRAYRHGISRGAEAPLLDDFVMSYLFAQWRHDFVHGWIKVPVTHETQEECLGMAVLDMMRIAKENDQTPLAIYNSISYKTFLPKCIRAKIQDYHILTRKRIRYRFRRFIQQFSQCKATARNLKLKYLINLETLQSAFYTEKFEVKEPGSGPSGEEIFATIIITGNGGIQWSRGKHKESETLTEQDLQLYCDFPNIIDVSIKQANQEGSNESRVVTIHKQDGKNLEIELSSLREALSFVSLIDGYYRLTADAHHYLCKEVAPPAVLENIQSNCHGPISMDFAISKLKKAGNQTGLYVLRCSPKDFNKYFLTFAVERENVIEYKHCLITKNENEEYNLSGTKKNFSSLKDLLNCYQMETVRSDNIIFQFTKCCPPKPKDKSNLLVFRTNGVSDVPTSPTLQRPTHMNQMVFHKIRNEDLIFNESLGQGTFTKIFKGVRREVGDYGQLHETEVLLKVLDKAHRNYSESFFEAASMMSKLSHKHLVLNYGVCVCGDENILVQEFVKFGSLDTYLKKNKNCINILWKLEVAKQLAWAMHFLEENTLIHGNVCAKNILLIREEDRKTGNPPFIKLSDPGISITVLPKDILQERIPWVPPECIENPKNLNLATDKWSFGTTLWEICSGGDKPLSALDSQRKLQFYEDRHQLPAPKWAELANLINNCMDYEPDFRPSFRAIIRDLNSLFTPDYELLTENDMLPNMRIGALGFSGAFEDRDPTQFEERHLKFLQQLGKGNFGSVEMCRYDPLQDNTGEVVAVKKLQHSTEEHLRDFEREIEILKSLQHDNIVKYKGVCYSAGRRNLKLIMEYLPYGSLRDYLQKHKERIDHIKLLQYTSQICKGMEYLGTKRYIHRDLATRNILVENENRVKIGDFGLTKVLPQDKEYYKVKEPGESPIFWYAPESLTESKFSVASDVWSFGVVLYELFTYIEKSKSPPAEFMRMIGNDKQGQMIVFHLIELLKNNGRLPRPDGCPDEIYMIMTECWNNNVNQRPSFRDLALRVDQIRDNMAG
- test.description: Inhibition of recombinant epitope-tagged JAK2 (808 to 1132) (unknown origin) using LPLDKDYYVVREPGQ as substrate by beta-countiing analysis in presence of 33P-gamma-ATP
property: IC50 (nM)

Would you please look over these solved cases?
CNc1cc(-n2cc(C(N)=O)c(-c3cc(Cl)ccc3C)c2)ncn1 :: 620
Cc1ccc(Cl)cc1-c1cn(-c2cc(N)ncn2)cc1C(N)=O :: 369
Cc1ccc(Cl)cc1-n1cc(-c2ccnc(N)n2)cc1C(N)=O :: 216
Cc1ccc(Cl)cc1-c1cn(-c2ncnc3[nH]ccc23)cc1C(N)=O :: 16
Cc1ccc(Cl)cc1-c1ccc(-c2ccnc(N)n2)[nH]1 :: 972

1 = Cc1ccc(Cl)cc1-c1cn(-c2ncnn3cccc23)cc1C(N)=O
2 = Cc1ccc(Cl)cc1-c1ncc(-c2ccnc(N)n2)[nH]1
3 = CNc1cc(-c2cc(C(N)=O)n(-c3cc(Cl)ccc3C)c2)ncn1
4 = Cc1ccc(Cl)cc1-c1cc(-c2ncnc3[nH]ccc23)[nH]c1C(N)=O
5 = Cc1ccc(Cl)cc1-c1cc(-c2cc(N)ncn2)[nH]c1C(N)=O
Sort by IC50, descending. List the labels according to the requested ordering.
1, 2, 5, 3, 4

* * *

- test.description: Oral bioavailability in Balb nu/nu mouse at 10 mg/kg by LC/MS/MS analysis
- Type: ADME, organism-based
- stated.conditions: in vivo
property: bioavailability (%)

Cc1ccc(Cl)cc1-n1cc(-c2ncnc3[nH]ccc23)cc1C(N)=O :: 8

P = CCc1ccc(Cl)cc1-n1cc(-c2cc(NC)ncn2)cc1C(N)=O
Q = CCc1ccc(Cl)cc1-n1cc(-c2cc(N)ncn2)cc1C(N)=O
R = CCc1ccc(Cl)cc1-n1cc(-c2ncnn3cccc23)cc1C(N)=O
I would appreciate it if you could sort these 3 molecules by bioavailability, starting from the smallest number. Respond with an ordered listing of the labels, as requested.
R, P, Q

* * *

- test.description: Cmax in Balb nu/nu mouse at 10 mg/kg, iv by LC/MS/MS analysis
- Assay type: ADME, organism-based
- Set-up: dose 10 mg/kg, route intravenous
- stated.conditions: in vivo
property: Cmax (µM)

Cc1ccc(Cl)cc1-n1cc(-c2ncnc3[nH]ccc23)cc1C(N)=O :: 51

I = CCc1ccc(Cl)cc1-n1cc(-c2cc(N)ncn2)cc1C(N)=O
II = CCc1ccc(Cl)cc1-n1cc(-c2ncnn3cccc23)cc1C(N)=O
III = CCc1ccc(Cl)cc1-n1cc(-c2cc(NC)ncn2)cc1C(N)=O
Hey, quick one: sort these by Cmax, low to high? Output spec: labels arranged per the requested ranking.
II, III, I

* * *

- test.description: AUC (infinity) in Balb nu/nu mouse at 10 mg/kg, iv by LC/MS/MS analysis
- Assay type: ADME, organism-based
- Parameters: time infinity, dose 10 mg/kg, route intravenous
- stated.conditions: plasma
property: AUC(0-inf) (µM·h)

CCc1ccc(Cl)cc1-n1cc(-c2cc(NC)ncn2)cc1C(N)=O :: 37.4

1 = CCc1ccc(Cl)cc1-n1cc(-c2cc(N)ncn2)cc1C(N)=O
2 = Cc1ccc(Cl)cc1-n1cc(-c2ncnc3[nH]ccc23)cc1C(N)=O
3 = CCc1ccc(Cl)cc1-n1cc(-c2ncnn3cccc23)cc1C(N)=O
Rank by AUC(0-inf) (largest to smallest). Output spec: a listing of the labels in the requested order.
1, 2, 3
